Origin of measurements: patent US8969373B2

# measurement notes: Pharmacokinetic evaluation in SD rats after oral administration
# Type: in vivo, Sprague-Dawley (SD) rats
# study conditions: male, Sprague-Dawley, rat, plasma, oral gavage, 10 mg/kg
measure name: Tmax (min)
Numbers only, in min.

Tmax lookup needed for "C=C[C@@H]1C[C@]1(NC(=O)[C@@H]1C[C@@H](Oc2cc(-c3ccccc3)nc3c2oc2ccccc23)CN1C(=O)[C@@H](NC(=O)OC(C)(C)C)C(C)(C)C)C(=O)NS(=O)(=O)C1CC1" , thanks. 37.8

Query "C=C[C@@H]1C[C@]1(NC(=O)[C@@H]1C[C@@H](Oc2cc(-c3csc(NC(=O)C(C)C)n3)nc3c2oc2ccc(OC)c(Cl)c23)CN1C(=O)[C@@H](NC(=O)OC(C)(C)C)C(C)(C)C)C(=O)NS(=O)(=O)C1CC1" next 24

Please do the same for "COc1ccc2c(c1)c(O[C@@H]1C[C@H]3C(=O)N[C@]4(C(=O)NS(=O)(=O)C5CC5)C[C@H]4/C=C\CCCCC[C@H](NC(=O)OC(C)(C)C)C(=O)N3C1)nc1c3ccccc3oc21" as well. 102

Please give Tmax, item by item, for the list that follows.
1. CC(C)(C)OC(=O)N[C@H]1CCCCC/C=C\[C@@H]2C[C@@]2(C(=O)NS(=O)(=O)C2CC2)NC(=O)[C@@H]2C[C@@H](Oc3nc4c5cc(Cl)ccc5oc4c4ccccc34)CN2C1=O
2. COc1ccc2oc3c4ccccc4c(O[C@@H]4C[C@H]5C(=O)N[C@]6(C(=O)NS(=O)(=O)C7CC7)C[C@H]6/C=C\CCCCC[C@H](NC(=O)OC(C)(C)C)C(=O)N5C4)nc3c2c1

75
24
